Below: a set of entries, each annotated with reported log10 of IC50.
system: human SPPL2a (Homo sapiens, UniProt Q8TCT8)
Sequence (Q8TCT8 26-520): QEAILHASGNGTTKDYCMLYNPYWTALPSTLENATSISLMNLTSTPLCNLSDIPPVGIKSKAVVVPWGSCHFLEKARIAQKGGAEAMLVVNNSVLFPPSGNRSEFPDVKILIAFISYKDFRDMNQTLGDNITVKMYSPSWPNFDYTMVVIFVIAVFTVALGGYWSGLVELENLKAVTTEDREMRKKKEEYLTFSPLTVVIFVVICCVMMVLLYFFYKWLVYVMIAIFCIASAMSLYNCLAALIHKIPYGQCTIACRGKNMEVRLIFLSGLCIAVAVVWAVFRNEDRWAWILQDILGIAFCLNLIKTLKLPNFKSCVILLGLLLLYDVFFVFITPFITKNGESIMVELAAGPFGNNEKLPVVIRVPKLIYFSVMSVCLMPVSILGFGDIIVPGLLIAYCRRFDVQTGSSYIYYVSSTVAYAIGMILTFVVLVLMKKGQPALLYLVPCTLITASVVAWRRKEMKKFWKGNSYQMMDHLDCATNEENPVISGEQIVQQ
procedureText: Sppl2a RGA (reporter gene assay) in HEK293 cells
Type: cell-based
Design: expressed in transfected cells; host or cells: HEK293 (transient)
statedConditions: NT-TNF-VP16-Gal4 substrate, Gal4-luciferase reporter, 24 h
Values are log10 of IC50 in nM.

// below: answered compounds
- C[C@H](CC(=O)Nc1cc(-c2ccc(C(F)(F)F)nc2)nn1C)C(=O)N[C@@H]1C(=O)N2CCCN2Cc2ccccc21 [Example 72]: 0.95
- CC[C@H](CNC(=O)c1c(C)noc1C(F)(F)F)C(=O)N[C@@H]1C(=O)N2CCCN2Cc2ccccc21 [Example 17]: 0.70
- Cc1nc(-c2ccc(C(F)(F)F)nc2)sc1C(=O)NC[C@H](C(=O)N[C@@H]1C(=O)N2CCCN2C(=O)c2ccccc21)C(F)(F)F [Example 38]: 1.63
- CCn1nc(-c2cc(C)no2)cc1NC(=O)C[C@@H](C)C(=O)N[C@@H]1C(=O)N2CCCN2Cc2ccccc21 [Example 101]: 0.85

Enquiry: Could you share which log10 of IC50 value was measured for Cc1nc(C(=O)NCC(F)F)sc1C(=O)NC[C@H](C(=O)N[C@@H]1C(=O)N2CCCN2Cc2ccccc21)C1CC1 [Example 6] ?
Return: 0.30

Enquiry: Cool, now C[C@H](CC(=O)Nc1cc(C(=O)NC2CC2)nn1C)C(=O)N[C@@H]1C(=O)N2CCCN2Cc2ccccc21 [Example 102]
Return: 2.09

Enquiry: Cool, now CC(C)NC(=O)c1nc(Cl)c(NC(=O)C[C@@H](C)C(=O)N[C@@H]2C(=O)N3CCCN3Cc3ccccc32)s1 [Example 64]
Return: 0.48
